All values here come from patent US6600012.

target: T1, HLA.A2 on T2 mutant cells; assay: T2 cell HLA.A2 upregulation assay, flow cytometry with MA2.1
T1 construct: MHC class I molecule on the T2 cell surface; also called HLA.A2.1; class I on T2 cells
Think of 30% as a floor: if % Change in mean channel intensity stands on it or above, it is Condition met; beneath it, Condition not met.

- binder: "VTSAPDTRP [VTSAPDTRP, MUC-1 tandem repeat synthetic 9 mer]"
  label-class: "Condition not met"
- binder: "PDTRPAPGS [PDTRPAPGS, MUC-1 tandem repeat synthetic 9 mer]"
  label-class: "Condition not met"
- binder: "DTRPAPGST [DTRPAPGST, MUC-1 tandem repeat synthetic 9 mer]"
  label-class: "Condition met"
- binder: "GVTSAPDTR [GVTSAPDTR, MUC-1 tandem repeat synthetic 9 mer]"
  label-class: "Condition not met"
- binder: "TSAPDTRPA (also called TSA 9 mer; 9 mers TSA . .) [TSAPDTRPA, MUC-1 tandem repeat synthetic 9 mer]"
  label-class: "Condition met"

Data request: API: above_or_equal(metric=% Change in mean channel intensity, cutoff=30%) for item APDTRPAPG [APDTRPAPG, MUC-1 tandem repeat synthetic 9 mer]
Data returned: Condition met
